- Measured on: Vacuolar-type proton translocating pyrophosphatase 1 (Trypanosoma brucei) (UniProt Q8MTZ4)
- Sequence (Q8MTZ4 as listed by the source): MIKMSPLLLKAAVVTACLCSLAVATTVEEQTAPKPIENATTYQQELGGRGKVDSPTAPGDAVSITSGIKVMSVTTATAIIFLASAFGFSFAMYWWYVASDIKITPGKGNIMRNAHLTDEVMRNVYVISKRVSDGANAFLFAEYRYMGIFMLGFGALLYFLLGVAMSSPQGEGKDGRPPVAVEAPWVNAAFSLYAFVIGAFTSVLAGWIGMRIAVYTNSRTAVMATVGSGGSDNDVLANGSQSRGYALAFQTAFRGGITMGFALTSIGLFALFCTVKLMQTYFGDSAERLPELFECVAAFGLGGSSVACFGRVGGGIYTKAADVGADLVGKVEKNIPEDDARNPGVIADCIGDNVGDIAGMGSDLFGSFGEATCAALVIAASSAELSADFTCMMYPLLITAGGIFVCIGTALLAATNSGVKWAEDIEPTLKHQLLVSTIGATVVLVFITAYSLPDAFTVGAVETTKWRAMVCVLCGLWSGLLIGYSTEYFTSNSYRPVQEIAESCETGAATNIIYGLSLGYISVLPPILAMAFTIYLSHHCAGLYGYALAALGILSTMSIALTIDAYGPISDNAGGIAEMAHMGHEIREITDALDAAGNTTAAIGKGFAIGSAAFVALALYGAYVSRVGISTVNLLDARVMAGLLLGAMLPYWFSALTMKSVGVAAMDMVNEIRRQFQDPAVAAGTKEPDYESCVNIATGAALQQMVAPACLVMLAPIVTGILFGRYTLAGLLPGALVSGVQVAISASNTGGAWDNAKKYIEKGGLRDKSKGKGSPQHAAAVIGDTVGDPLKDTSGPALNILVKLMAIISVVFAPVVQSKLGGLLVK
- Test protocol: Ratio of ED50 against KB cell line to that of IC50 of TbVSP1
- Type: functional, cell-based
Output fulfilled for TI not less than 40; output not fulfilled otherwise.

# Molecule smiles, Cat
records = [
    ("O=P(O)(O)C(O)(Cn1ccnc1)P(=O)(O)O", "not fulfilled"),
    ("CC(C)c1cccc(NC(P(=O)(O)O)P(=O)(O)O)c1", "fulfilled"),
    ("O=P(O)(O)C(O)(Cc1cccc(Br)c1)P(=O)(O)O", "not fulfilled"),
    ("O=P(O)(O)C(Nc1ccc(-c2ccccc2)cc1)P(=O)(O)O", "not fulfilled"),
    ("CCc1ccc(NC(P(=O)(O)O)P(=O)(O)O)cc1", "not fulfilled"),
    ("CCCCC(O)(P(=O)(O)O)P(=O)(O)O", "fulfilled"),
    ("CCCCCCCCCCCCCCCC(O)(P(=O)(O)O)P(=O)(O)O", "not fulfilled"),
    ("O=P(O)(O)C(Nc1ccc(Cl)cc1Cl)P(=O)(O)O", "fulfilled"),
    ("CC(C)c1cccc(C(C)C)c1NC(P(=O)(O)O)P(=O)(O)O", "not fulfilled"),
    ("CCc1cccc(NC(P(=O)(O)O)P(=O)(O)O)c1", "fulfilled"),
    ("CCCCOc1ccc(NC(P(=O)(O)O)P(=O)(O)O)cc1", "not fulfilled"),
]

###

- Measured on: Vacuolar-type proton translocating pyrophosphatase 1 (Trypanosoma brucei)
- Test protocol: Ratio of ED50 against KB cell line to that of IC50 of TbVSP1
- Assay type: functional, cell-based
Quick list: TI per entry.

# Molecule smiles, TI
records = [
    ("O=P(O)(O)C(O)(Cc1cccc(Cl)c1)P(=O)(O)O", 38),
    ("CCCNC(P(=O)(O)O)P(=O)(O)O", 10),
    ("CCCCNC(P(=O)(O)O)P(=O)(O)O", 4.9),
    ("CN(CCOc1ccccc1)CCC(O)(P(=O)(O)O)P(=O)(O)O", 1),
    ("CCCCCCCCC(O)(P(=O)(O)O)P(=O)(O)O", 1.3),
    ("CCCCCCCCCNC(P(=O)(O)O)P(=O)(O)O", 16),
    ("O=P(O)(O)C(Nc1cccc(Cc2ccccc2)c1)P(=O)(O)O", 14),
    ("O=P(O)(O)C(Nc1cccc(-c2ccccc2)c1)P(=O)(O)O", 174),
    ("Nc1ccc(CC(O)(P(=O)(O)O)P(=O)(O)O)cc1", 4),
    ("CCCCCC(O)(P(=O)(O)O)P(=O)(O)O", 10),
    ("O=P(O)(O)C(O)(Cc1cccc2ccccc12)P(=O)(O)O", 75),
]

###

- Measured on: Vacuolar-type proton translocating pyrophosphatase 1 (Trypanosoma brucei) (UniProt Q8MTZ4)
- Test protocol: Ratio of ED50 against KB cell line to that of IC50 of TbVSP1
- Assay type: functional, cell-based
// bucketize TI: low (below 2), mid (2 to below 20), high (20 or more)

# Molecule, Cat
rows = [
    ("CCCCCCCCCC(O)(P(=O)(O)O)P(=O)(O)O", "mid"),
    ("Cc1cccc(CC(O)(P(=O)(O)O)P(=O)(O)O)c1", "low"),
    ("O=P(O)(O)C(NC1CCCCCC1)P(=O)(O)O [INCADRONIC ACID]", "mid"),
    ("CCn1c2ccccc2c2ccc(NC(P(=O)(O)O)P(=O)(O)O)cc21", "mid"),
    ("O=P(O)(O)C(O)(Cc1cccnc1)P(=O)(O)O [RISEDRONIC ACID]", "low"),
    ("CCc1cccc(NC(P(=O)(O)O)P(=O)(O)O)n1", "mid"),
    ("O=P(O)(O)C(CNc1ccccn1)P(=O)(O)O", "low"),
    ("O=[N+]([O-])c1cccc(CC(O)(P(=O)(O)O)P(=O)(O)O)c1", "high"),
    ("O=P(O)(O)C(Nc1ccc2c(c1)CCC2)P(=O)(O)O", "high"),
    ("O=P(O)(O)C(O)(Cc1cccc(C(F)(F)F)c1)P(=O)(O)O", "mid"),
]
